Target: AgFus1
Assay: SPOT peptide array binding signal intensity (averaged, normalized) (arbitrary units (background-subtracted, floor 0; scale differs between SH3 domains)); higher = stronger binding of the SH3 domain to the peptide
Decision: SPOT peptide array binding signal intensity >= 100 yields Yes, all other cases yield No.

Worked examples, 6 binders total:
{"columns": ["Binder", "Label Value"],
 "data": [
  ["DLFKPLPEPPTELGR", "No"],
  ["NAGIRPKFILALNDE", "No"],
  ["NRLRKRLNLPSEISI", "Yes"],
  ["FIRKRAPTPPAPSRS", "Yes"],
  ["LKHGWKPLRPIKLIS", "Yes"],
  ["SKAKRPKFLLDLQIK", "Yes"]
]}

Moving on to another binder below.
Decide: SPOT peptide array binding signal intensity of IAPIPMPKPNPTHIS >= 100? No
